Biological target: T1, SspB (Escherichia coli, UniProt P0AFZ3 1-165)
T1 chain: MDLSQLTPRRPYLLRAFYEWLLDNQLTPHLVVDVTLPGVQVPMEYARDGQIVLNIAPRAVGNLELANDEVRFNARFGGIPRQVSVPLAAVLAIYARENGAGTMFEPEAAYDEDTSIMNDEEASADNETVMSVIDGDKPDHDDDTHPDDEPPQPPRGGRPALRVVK
Assay: MST
No end group written: not given here.
experimental-readout: Ka (M⁻¹)
Output spec: scalar in M⁻¹, unitless text.

eGFP-AANDENYALAA (ssrA tag of Escherichia coli, the 11 amino acids added by trans-translation (tmRNA), appended to the C-terminus of eGFP; Degron fused to the C-terminus of His-TEV-eGFP; also called eGFP-ssrA; eGFP-SsrA; source: E. coli ΔclpP Keio strain (JW0427) (earlier Top10), pBAD, purified (HisTrap and Superdex200 in tandem); not shown: His-TEV, N-terminal, kept; eGFP, N-terminal, kept) [eGFP-AANDENYALAA]	1.32e+07
eGFP-AANDENYSENYADAS (ssrA tag variant with the SENY linker and the C-terminal ALAA replaced by ADAS, appended to the C-terminus of eGFP; Degron fused to the C-terminus of His-TEV-eGFP; source: E. coli ΔclpP Keio strain (JW0427) (earlier Top10), pBAD, purified (HisTrap and Superdex200 in tandem); not shown: His-TEV, N-terminal, kept; eGFP, N-terminal, kept) [eGFP-AANDENYSENYADAS]	3.37e+06

Shift focus to the following entry.
Report measured Ka; entry is eGFP-AANDENYSENY (AANDENY motif of the ssrA tag followed by the SENY linker, appended to the C-terminus of eGFP; Degron fused to the C-terminus of His-TEV-eGFP; source: E. coli ΔclpP Keio strain (JW0427) (earlier Top10), pBAD, purified (HisTrap and Superdex200 in tandem); not shown: His-TEV, N-terminal, kept; eGFP, N-terminal, kept) [eGFP-AANDENYSENY] 9.78e+06
